# procedure_summary: Saturation solubility of rutin by shake flask method
# Format: physicochemical
# condition_set: organic solvent or mixture, thermodynamic from solid; in 1,2-propylene glycol, 37 °C, 72 h
observable: solubility at 72 h (mg/mL)
Report only the number, with the unit mg/mL understood.

The recorded solubility at 72 h for entry C[C@@H]1O[C@@H](OC[C@H]2O[C@@H](Oc3c(-c4ccc(O)c(O)c4)oc4cc(O)cc(O)c4c3=O)[C@H](O)[C@@H](O)[C@@H]2O)[C@H](O)[C@H](O)[C@H]1O [rutin, quercetin-3-O-rutinoside] equals 32

Origin of the recorded values: paper PMC9186361
